All figures here come from patent US7897788B2.

SUBJECT_OF_TEST: hCRTH2 receptor (Homo sapiens, UniProt Q9Y5Y4)
Construct: expressed in transfected cells
Sequence (Q9Y5Y4 whole entry): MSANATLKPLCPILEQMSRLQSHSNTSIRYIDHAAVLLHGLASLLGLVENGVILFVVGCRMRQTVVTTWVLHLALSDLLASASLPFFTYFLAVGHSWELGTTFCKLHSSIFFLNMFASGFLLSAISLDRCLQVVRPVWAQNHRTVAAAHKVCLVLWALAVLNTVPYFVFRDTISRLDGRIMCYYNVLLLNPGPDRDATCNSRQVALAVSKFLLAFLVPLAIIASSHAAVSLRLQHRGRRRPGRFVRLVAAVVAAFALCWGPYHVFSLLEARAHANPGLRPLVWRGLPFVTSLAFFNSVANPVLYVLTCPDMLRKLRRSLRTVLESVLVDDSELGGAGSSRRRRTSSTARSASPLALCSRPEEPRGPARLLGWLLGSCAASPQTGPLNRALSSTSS
ASSAY_SUMMARY: CRTH2 membranes radioligand binding assay ({3H}-PGD2), Example B-1
CONDITION_DETAILS: {3H}-PGD2 radioligand binding, read-out: CRTH2 binding IC50 (nM) (method B1 above)
Kindly state IC50 for each of the entries shown.
Supply the numeric figure in nM, leaving out any unit text.

What value of IC50 has been recorded for this entry: CN(C(=O)/C(C#N)=C/c1cn(CC(=O)O)c2ccccc12)c1ccccc1 [Example 46] 11

Entry CC(=O)c1ccc(N(C)C(=O)/C(C#N)=C/c2cn(CC(=O)O)c3ccccc23)cc1 [Example 94] please 10

Entry N#C/C(=C\c1cn(CC(=O)O)c2ccccc12)C(=O)N(CC(=O)O)c1ccccc1 [Example 99] please 16

Entry CN(C(=O)/C(C#N)=C/c1cn(CC(=O)O)c2ccc(F)cc12)c1ccccc1C(F)(F)F [Example 141] please 17

Entry CN(C(=O)/C(C#N)=C/c1cn(CC(=O)O)c2ccccc12)c1cccc(Cl)c1 [Example 101] please 15

###

SUBJECT_OF_TEST: hCRTH2 receptor (Homo sapiens)
Construct: expressed in transfected cells
ASSAY_SUMMARY: Intracellular calcium mobilization assay (FLIPR), Example B-2
Assay type: cell-based
CONDITION_DETAILS: HEK-293 cells expressing hCRTH2; 10 nM prostaglandin D2 as agonist; read-out: CRTH2 FLIPR IC50 (nM) (method B2 above)
Rule: IC50 below 100 nM gives 1, anything at or above gives -1.

IC50 under 100 nM? Item: N#C/C(=C\c1cn(CC(=O)O)c2ccccc12)C(=O)N1c2ccccc2Sc2ccc(Cl)cc21 1

Entry CN(C(=O)/C(C#N)=C/c1cn(CC(=O)O)c2ccccc12)c1cccc(Cl)c1 please -1

Entry N#C/C(=C\c1cn(CC(=O)O)c2ccccc12)C(=O)N1Cc2ccccc2Cc2ccccc21 please -1

Entry N#C/C(=C\c1cn(CC(=O)O)c2ccccc12)C(=O)N(Cc1ccccc1)c1ccccc1 please 1

Entry CN(C(=O)/C(C#N)=C/c1cn(CC(=O)O)c2ccccc12)c1ccccc1 please 1

Entry Cc1ccc2c(/C=C(\C#N)C(=O)N3Cc4ccccc4Cc4ccccc43)cn(CC(=O)O)c2c1 please -1

Entry COc1ccc(N(C)C(=O)/C(C#N)=C/c2cn(CC(=O)O)c3ccccc23)cc1 please 1
